Consider the following compounds; for each one, report its pIC50.
Test system: HeLa
Test: Cytotoxicity against Homo sapiens (human) HeLa cells assessed as growth inhibition after 48 hr by trypan blue exclusion assay
Format: functional, cell-based
pIC50: −log10 of the molar value.

[
  {
    "chem smiles": "CCCCCCC[C@@H](C/C=C/CCC(=O)NCc1ccc(F)cc1)OC",
    "value": "< 4.00"
  },
  {
    "chem smiles": "CCCCCCC[C@H](O)C/C=C/CCC(=O)N1CCCC1",
    "value": "< 4.00"
  }
]

The recorded pIC50 for entry `CCCCCCC[C@@H](C/C=C/CCC(=O)N1CCCCC1)OC` equals < 4.00
